From: patent US3998963A

# Lookup of reported (b) relative efficacy of derivative vs parent compound, Housefly keyed by entry
System: house flies (Musca domestica, L.)
assay-notes: Fly Bait Test
Type: in vivo
experimental-parameters: formula of footnote b is drawing 8
quantity: (b) relative efficacy of derivative vs parent compound, Housefly

* CSC(C)=NOC(=O)N(C)Sc1ccc(C(C)(C)C)cc1 | 0.4
* CC(=NOC(=O)N(C)Sc1ccc(Cl)cc1)SC(C)C | 0.4
* CC(=NOC(=O)N(C)Sc1ccc(C(C)(C)C)cc1)SC(C)C | 0.43
* CC(=NOC(=O)N(C)Sc1ccc(C)cc1)SC(C)C | 0.38

---

In this section, each of the compounds is paired with its reported (b) relative value of derivative vs parent compound, Rat LD50.
System: rat
assay-notes: Mammalian Toxicity (peroral, rat)
Type: in vivo
experimental-parameters: peroral; formula of footnote b is drawing 8
Method: These compositions were also evaluated to determine their peroral toxicity to mammals by conventional methods. The animal selected for this experiment was the rat. The test results obtained are expressed in terms of the number of milligrams of composition per kilogram of weight of the animal required to achieve a mortality rate of 50 percent (LD50). In Table 1 are presented insect and rat toxicity data (bait tests) on a comparative basis of the compounds described above. […]
quantity: (b) relative value of derivative vs parent compound, Rat LD50

• CC(=NOC(=O)N(C)Sc1ccc(Cl)cc1)SC(C)C = 0.83
• CSC(C)=NOC(=O)N(C)Sc1ccc(Cl)cc1 = 1.43
• CC(=NOC(=O)N(C)Sc1ccc(C)cc1)SC(C)C = 0.67
• CSC(C)=NOC(=O)N(C)Sc1ccc(C)cc1 = 1.5
• CSC(C)=NOC(=O)N(C)Sc1ccc(C(C)(C)C)cc1 = 0.5
• CC(=NOC(=O)N(C)Sc1ccc(C(C)(C)C)cc1)SC(C)C = 0.2

---

assay-notes: Mammalian Toxicity (peroral, rat)
Format: in vivo
experimental-parameters: rat, in vivo, po, peroral; Table I; read-out: Rat LD50
Let's look at some compounds and their measured log10(LD50).
quantity: log10(LD50) (log10 of the value in mg/kg)

* CSC(C)=NOC(=O)N(C)Sc1ccc(Cl)cc1 | 1.81
* CSC(C)=NOC(=O)N(C)Sc1ccc(C(C)(C)C)cc1 | 2.29
* CNC(=O)ON=C(C)SC | 1.69
* CC(=NOC(=O)N(C)Sc1ccc(C(C)(C)C)cc1)SC(C)C | 1.85
* CC(=NOC(=O)N(C)Sc1ccc(Cl)cc1)SC(C)C | 1.21
* CNC(=O)ON=C(C)SC(C)C | 0.89
* CSC(C)=NOC(=O)N(C)Sc1ccc(C)cc1 | 1.75
* CC(=NOC(=O)N(C)Sc1ccc(C)cc1)SC(C)C | 1.27

---

Attribute: LD50
assay-notes: Mammalian Toxicity (peroral, rat)
Format: in vivo
experimental-parameters: rat, in vivo, po, peroral; read-out: rat LD50 (molar)
quantity: LD50 (µmol/kg)

• CNC(=O)ON=C(C)SC = 330
• CSC(C)=NOC(=O)N(C)Sc1ccc(C)cc1 = 200
• CSC(C)=NOC(=O)N(C)Sc1ccc(C(C)(C)C)cc1 = 600

---

List of (Imm/Bait), Housefly values.
Test system: houseflies (Musca domestica, L.)
assay-notes: Fly Immersion Test
Format: in vivo
experimental-parameters: ratio immersion/bait LD50
quantity: (Imm/Bait), Housefly

• CC(=NOC(=O)N(C)Sc1ccc(Cl)cc1)SC(C)C = 0.5
• CC(=NOC(=O)N(C)Sc1ccc(C)cc1)SC(C)C = 0.5
• CNC(=O)ON=C(C)SC(C)C = 6
• CC(=NOC(=O)N(C)Sc1ccc(C(C)(C)C)cc1)SC(C)C = 0.2
• CSC(C)=NOC(=O)N(C)Sc1ccc(C)cc1 = 7
